Observed GI50 values for U251 CNS are listed in what follows.

Asked: Item CC(=O)CCc1ccc(Oc2c3ccccc3nc3occc23)cc1 : provide GI50
Given back: 13.5 µM

Asked: Item CCCCNC(=O)Oc1ccc(/C(=C(\C)c2ccc(OC)cc2)c2ccc(OCCN3CCCCC3)cc2)cc1 : provide GI50
Given back: 2.49 µM

Asked: Item COc1cc(/C=C2\C[C@H]3[C@@H]4CC=C5C[C@@H](O)CC[C@]5(C)[C@H]4CC[C@]3(C)[C@H]2O)ccc1OCCN1CCCCC1 : provide GI50
Given back: 1.13 µM

Asked: Item C[N+]1(CCNP(=S)(NCC[N+]2(C)Cc3c(ccc4c3OCO4)C3C2c2cc4c(cc2C[C@@H]3O)OCO4)NCC[N+]2(C)Cc3c(ccc4c3OCO4)C3C2c2cc4c(cc2C[C@@H]3O)OCO4)Cc2c(ccc3c2OCO3)C2C1c1cc3c(cc1C[C@H]2O)OCO3 (stereo partly specified) : provide GI50
Given back: 1.99 µM

Asked: Item COc1nc2c(c(=O)n1C)CN(c1ccccc1)C(=O)CN2C : provide GI50
Given back: 78.9 µM

Asked: Item COc1cc(OCCCN2CCCC2)ccc1Nc1ncc(Cl)c(Nc2ccccc2P(C)(C)=O)n1 : provide GI50
Given back: 5.43 µM

----------
Test system: EKVX NSCLC
ASSAY_PROTOCOL: NCI tumour cell line growth inhibition, 48 h
Reported GI50 by item:

Answered examples (3):
* C/C(COc1ccc2oc(-c3ccccc3)cc(=O)c2c1)=N\O | 2.89 µM
* CCCCNC(=O)Oc1ccc(/C(=C(\C)c2ccc(OC)cc2)c2ccc(OCCN3CCCCC3)cc2)cc1 | 5.18 µM
* COc1ccc2cc(C(=O)N3CCC([C@@H](C)C(=O)NCc4ccc5c(c4)OCO5)CC3)[nH]c2c1 | > 100 µM

Asked: Item COc1ccc(-c2oc3ncnc(N)c3c2-c2ccc(NC(=O)Nc3cc(C(F)(F)F)ccc3F)cc2)cc1 : provide GI50
Given back: 1.59 µM

Asked: Item CC[C@H](C)[C@H](NC(=O)c1ncccn1)C(=O)N(C)[C@H](C[C@@H](OC(C)=O)c1nc(C(=O)N[C@@H](Cc2ccccc2)C[C@H](C)C(=O)OC)cs1)C(C)C : provide GI50
Given back: 4.62 µM

Asked: Item [Mn+3].[O-][Cl+3]([O-])([O-])O.[O-]c1ccccc1C=NCCN1CC1.[O-]c1ccccc1C=NCCN1CC1 : provide GI50
Given back: 41.3 µM

----------
Reported TGI by item:
Tested on: HL-60(TB) leukemia
ASSAY_PROTOCOL: NCI tumour cell line growth inhibition, 48 h

Answered examples (6):
- O=CC1=CCCN(CCc2c[nH]c3ccccc23)C1: 91.3 µM
- O=C([O-])c1ccccc1Nc1ccccc1C(=O)[O-].[OH3+].[Zn+2]: 49.4 µM
- CCCCC1Nc2ccccc2-c2ccnc(Cl)c21 (stereo unspecified): 51.8 µM
- C/C(=N\NC(=O)c1ccccc1O)c1c(O)cc(C)oc1=O: > 100 µM
- Cn1nc(-c2ccccc2)c2c(/C=C/c3ccc(F)cc3)onc2c1=O: > 100 µM
- C=C[C@@H]1CCC/C=C/[C@@H]2C[C@H](O)C[C@H]2[C@H](O)/C=C/C(=O)O1: > 25.2 µM

Asked: Item O=C1NN(C(=O)c2ccccc2)C(c2ccc(Cl)c(Cl)c2)=C/C1=C\c1ccccc1[N+](=O)[O-] : provide TGI
Given back: > 6.75 µM

Asked: Item Cc1cn(C(CO)OC(CO)CN(O)C2C3CC4CC(C3)CC2C4)c(=O)[nH]c1=O (stereo unspecified) : provide TGI
Given back: > 100 µM

Asked: Item CCCC(=O)Oc1c2ccsc2c(OC(=O)CCC)c2ccsc12 : provide TGI
Given back: 3.79 µM

Asked: Item COc1ccc(C2=NN(C(C)=O)c3nc4ccccc4nc3O2)cc1 : provide TGI
Given back: > 100 µM

Asked: Item Cn1cnc(SC2=CC(=O)C=C3S[C@H]4C[C@@]23c2c(c(O)c3c5c2=NCCC=5C=N3)N4)c1CC(N)C(=O)O (stereo partly specified) : provide TGI
Given back: 8.27 µM

Asked: Item COc1ccc2c(c1)/C(=C\c1c(-c3ccccc3)nc3sccn13)C(=O)N2 : provide TGI
Given back: > 35.6 µM

Taken from PubChem BioAssay (NCI).
